- Tested System: T1, Claudin 18.2 (CLDN18.2), expressed on CHOS-CLDN 18.2 / HEK293-CLDN 18.2 / HCC827-CLDN 18.2 cells (human, UniProt P56856-2 1-261)
- T1 construct: whole, on cells; The species is not repeated for the CHOS-CLDN 18.2 cells; also called claudin-18A2
- Test Protocol: FACS, CHOS-CLDN18.2 cells, 0 µg/ml (background)
Readout Kind: FACS reading
Answer with a bare number; do not write a unit.

Field FACS reading (entry QP14371435 (antibody, human IgG1, kappa, V domains shown, Humanized from QP190191) VH: EVQLVESGGGLVKPGGSLRLSCAASGFTFSNYAMSWVRQAPGKGLEWVASIISGGRTYYLDSEKGRFTISRDNAKNSLYLQMNSLRAEDTAVYYCTRIYYGNSFDYWGQGTLVTVSS VL: DIVMTQSPDSLAVSLGERATISCKSSQSLLNSGNQKNYLTWYQQKPGQPPKLLIYWASTRESGVPDRFTGSGSGTDFTLTISSLQAEDVAVYYCQNDYSYPFTFGQGTKLEIKR ) reads 732
